FYI, the data here is from ChEMBL document CHEMBL3132861.

test: Inhibition of microtubule depolymerization in rat A10 cells after 18 hrs by immunofluorescence assay; type: cell-based

- MOLECULE: "CCOC(=O)c1[nH]c(Br)c(-c2cc(OC)c(OC)c(OC)c2)c1Br"
  pEC50: 3.82
- MOLECULE: "CCOC(=O)c1[nH]c(Br)c(-c2ccc3cc(OCC)ccc3c2)c1Br"
  pEC50: 3.82
- MOLECULE: "CCOC(=O)c1[nH]c(Br)c(-c2cccc3ccccc23)c1Br"
  pEC50: 5.15
- MOLECULE: "CCOC(=O)c1[nH]c(Br)c(-c2ccc(OC(F)(F)F)cc2)c1Br"
  pEC50: 4.57
- MOLECULE: "CCOC(=O)c1[nH]c(Br)c(-c2ccc(OC)c(F)c2)c1Br"
  pEC50: 4.85
- MOLECULE: "CCOC(=O)c1[nH]c(Br)c(-c2ccc3c(c2)OCO3)c1Br"
  pEC50: 4.53

----------
assay: Inhibition of microtubule depolymerization in rat A10 cells after 18 hrs by immunofluorescence assay; format: cell-based

- MOLECULE: "CCOC(=O)c1[nH]c(Br)c(-c2ccccc2)c1Br"
  pEC50: 3.82
- MOLECULE: "CCOC(=O)c1[nH]c(Br)c(-c2ccc3c(c2)OCCO3)c1Br"
  pEC50: 4.68
- MOLECULE: "CCOC(=O)c1[nH]c(Br)c(-c2ccc(Cl)cc2)c1Br"
  pEC50: 3.82
- MOLECULE: "CCOC(=O)c1[nH]c(Br)c(-c2ccc(OC)cc2)c1Br"
  pEC50: 5.15
- MOLECULE: "CCOC(=O)c1[nH]c(Br)c(-c2cccc(OC)c2)c1Br"
  pEC50: 5.62
- MOLECULE: "CCOC(=O)c1[nH]c(Br)c(-c2ccc(SC)cc2)c1Br"
  pEC50: 4.73
- MOLECULE: "CCOC(=O)c1[nH]c(Br)c(-c2ccc(Br)cc2)c1Br"
  pEC50: 4.03
- MOLECULE: "CCOC(=O)c1[nH]c(Br)c(-c2c[nH]c3ccccc23)c1Br"
  pEC50: 4.75
- MOLECULE: "CCOC(=O)c1[nH]c(Br)c(-c2cc(OC)c(OC)cc2Br)c1Br"
  pEC50: 4.85
- MOLECULE: "CCOC(=O)c1[nH]c(Br)c(-c2ccc(C)cc2)c1Br"
  pEC50: 3.82
- MOLECULE: "CCOC(=O)c1[nH]c(Br)c(-c2ccc(Cl)c(Cl)c2)c1Br"
  pEC50: 5
